Tested on: Bacillus subtilis
Assay: cleaved RNA product abundance (RNA/gDNA barcode ratio) relative to median wild-type variant (ratio to wild type); higher = more accumulation of the downstream cleavage product
Conditions: experiment (reporter, strain, medium): exp 8a: truncated aprE reporter, strain BJT201 with 2% xylose (RNase J1 expressed); cleavage site: glnRA (positions -5 to +31 mutated)
Entry flag: t if cleaved RNA product abundance reaches 0.5; f if it does not.

Can `CGACATGTCCCGCTTCTTTCATTACTCCGTTAGCAACTGTTTTGCTATATACATTTATCTTTTAAGAGGAGGAAT` be said to have cleaved RNA product abundance at or above 0.5? t

State whether the measured cleaved RNA product abundance reaches 0.5, counting equality as reaching it, for `CGACATGTCCCGCTTCTTTCATTATTCCGTTAGCAACTGTTTTGCTGTATACATTTACCTTTTAAGAGGAGGAAT` f

Entry `CGACATGTCCCGCTTCTTTCATTAATCAGTTAGCAACTGTTATGCTATATACATTTACCTTTTAAGAGGAGGAAT` : is its cleaved RNA product abundance no less than 0.5? t

Determine whether measured cleaved RNA product abundance meets or exceeds 0.5 for `CGACATGTCCCGCTTCTTTCATTAATCCGTTACTAACTGTTTTGCTATATACATTTACCTTTTAAGAGGAGGAAT` f

Form field: cleaved RNA product abundance at least 0.5? Entry: `CGACATGTCCCGCTTCTTTCATTAATCCGTTAGCAACTGTTTTTCTATATACATATACCTTTTAAGAGGAGGAAT` t

Would you say `CGACATGTCCCGCTTCTTTCATTAATCTGTTAGCTACTGTTTTGCTATATACATTTACCTTTTAAGAGGAGGAAT` shows cleaved RNA product abundance at minimum 0.5? t

Does cleaved RNA product abundance meet or surpass 0.5 for `CGACATGTCCCGCTTCTTTCATTAATCCGTTAGCAACTGTTTTGTTATATACATTTATCTTTTAAGAGGAGGAAT` ? f

Decide: is the reported value of cleaved RNA product abundance for `CGACATGTCCCGCTTCTTTCATTAATCCATTAGCAACTGTTTTGCTATATATATTTACCTTTTAAGAGGAGGAAT` equal to or greater than 0.5? t

Could you verify whether the entry `CGACATGTCCCGCTTCTTTCATTAATCCGATAGCAACTGTTTTGCTATATACATTTACTTTTTAAGAGGAGGAAT` shows cleaved RNA product abundance of no less than 0.5? t

Is the recorded value of cleaved RNA product abundance equal to or greater than 0.5 for this sequence? `CGACATGTCCCGCTTCTTTCATTAATCCGTTACCAACTGTTTTGCTATATACCTTTACCTTTTAAGAGGAGGAAT` f

Confirm if cleaved RNA product abundance reported for the sequence `CGACATGTCCCGCTTCTTTCATTAATCCGTAAGCAACTGTTTTGCTATATAAATTTACCTTTTAAGAGGAGGAAT` is 0.5 or above. f

Assess whether reported cleaved RNA product abundance for `CGACATGTCCCGCTTCTTTCATTACTCCGTTAGCAACTTTTTTGCTATATACATTTACCTTTTAAGAGGAGGAAT` sits at 0.5 or higher. t

Does the sequence `CGACATGTCCCGCTTCTTTCATTAATCCGTTAGCAACTGTTTTGCAATATACATTTACCTTTTAAGAGGAGGAAT` have recorded cleaved RNA product abundance that is 0.5 or more? f

API: above_or_equal(metric=cleaved RNA product abundance, cutoff=0.5) for item `CGACATGTCCCGCTTCTTTCATTAATCCGTTTGCAACTGTTTTGCTATATACATTTACTTTTTAAGAGGAGGAAT` t

Is it the case that `CGACATGTCCCGCTTCTTTCATTAATCCGTTAGCAAATGTTTTGCTATATACTTTTACCTTTTAAGAGGAGGAAT` has cleaved RNA product abundance reaching or exceeding 0.5? t

---

Test system: Bacillus subtilis
Experiment: cleaved RNA product abundance (RNA/gDNA barcode ratio) relative to median wild-type variant (ratio to wild type); higher = more accumulation of the downstream cleavage product
Conditions: experiment (reporter, strain, medium): exp 2b: truncated aprE reporter, strain BJT200; cleavage site: cggR-gapA (positions -7 to +36 mutated)
Hi all, reminder that labels come from cleaved RNA product abundance, split as low: < 0.1; mid: ≥ 0.1 and < 0.2; high: ≥ 0.2

State the band of `ACAGACGAAGGAGCCGCAAAGAAGTTATTAATGGATGAATAATCCCTGAATATAAATATCTCTCACTTATTTAAA` low

Any idea which band `ACAGACGAAGGAGCCGCAAAGAAGTTATTAAGGGATAAATAATCCCTCAATATAAATATCTCTCACTTATTTAAA` is in? high

Determine which band this sequence sits in: `ACAGACGAAGGAGCCGCAAAGAAGTTATTAAGTTATGAATAATCCCTCAATATAAATATCTCTCACTTATTTAAA` low

Quick check: band for `ACAGACGAAGGAGCCGCGAAGAAGTTATTAAGGGATGAATAATCCGTCAATATAAATATCTCTCACTTATTTAAA` mid

For the record `ACAGACGAAGGAGCCGCAAAGAAGTTATTAAGGGATGAATAATCCCTCAATATAGATATCTCTCACTTATTTAAA` , report the class its cleaved RNA product abundance corresponds to. high

Please classify: `ACAGACGAAGGAGCCGCAAAGAAGTTATAAAGGGAAGAATAATCCCTCAATATAAATATCTCTCACTTATTTAAA` mid

Categorize the following entry: `ACAGACGAAGGAGCCGCAAATAAGTTATTAAGAGATGAATAATCCCTCAATATAAATATCTCTCACTTATTTAAA` mid

Entry `ACAGACGAAGGAGCCGCAAAGAAGTTATTAAGGGATAAATAATCCTTCAATATAAATATCTCTCACTTATTTAAA` belongs to which category? high

// return the class label for `ACAGACGAAGGAGCCGCAAAGAAGTTATTAAGGGATGAATTATCCATCAATATAAATATCTCTCACTTATTTAAA` mid

# classify by cleaved RNA product abundance band: `ACAGACGAAGGAGCCGCAAAGAAGTTATTAAGGGATGAATAATCCCTCAATATGAATATCTCTCACTTATTTAAA` mid

For this sequence, which bin applies? `ACAGACGAAGGAGCCGCAAAGAAGTTATTAATGGATGAAAAATCCCTCAATATAAATATCTCTCACTTATTTAAA` mid

Category of `ACAGACGAAGGAGCCGCAAAGACGTTATTAAGGGATGAATAATCCCTCAAAATAAATATCTCTCACTTATTTAAA` : high

Record `ACAGACGAAGGAGCCGCAAAAAAGTTATTAAGGGATGAATAATCCCTCATTATAAATATCTCTCACTTATTTAAA` — which class? high

For `ACAGACGAAGGAGCCGCAAAGAAGTTTTTAAGGGTTGAATAATCCCTCAATATAAATATCTCTCACTTATTTAAA` , which cleaved RNA product abundance bin applies? mid

Field: class (cleaved RNA product abundance) — entry: `ACAGACGAAGGAGCCGCAAATAAGTTATTAAGGGATGAATAATCCCTCAATATAAACATCTCTCACTTATTTAAA` high

Please report the category associated with `ACAGACGAAGGAGCCGCAAAGAAGTTATTAAGGGACGAATAATCCGTCAATATAAATATCTCTCACTTATTTAAA` , nothing else. low

Which category does the recorded cleaved RNA product abundance put `ACAGACGAAGGAGCCGCAAAGAAGTTATTAAGGGATCAATAATCCCTCAAAATAAATATCTCTCACTTATTTAAA` in? high

Consider `ACAGACGAAGGAGCCGCAAAGAAGTTAATAAGGGATGAATAAACCCTCAATATAAATATCTCTCACTTATTTAAA` . To which cleaved RNA product abundance class does it belong? mid

# bin lookup: classify `ACAGACGAAGGAGCCGCAAAGAAGTTATTTAGGGTTGAATAATCCCTCAATATAAATATCTCTCACTTATTTAAA` by its cleaved RNA product abundance high

Input `ACAGACGAAGGAGCCGCAAAGAAGTTATTATGGGATGAATAATCCCTCAATATAAATACCTCTCACTTATTTAAA` ; output its category high

Band for `ACAGACGAAGGAGCCGCAAAGAAGTTATTAAGGGATAAACAATCCCTCAATATAAATATCTCTCACTTATTTAAA` ? high

Class for `ACAGACGAAGGAGCCGCAAAGAAGTTATTAAGGAATGATTAATCCCTCAATATAAATATCTCTCACTTATTTAAA` ? mid

Hey, which category is `ACAGACGAAGGAGCCGCAAAGAAGTTATTAAGAGATGACTAATCCCTCAATATAAATATCTCTCACTTATTTAAA` in, do you know? low

Form field 'band' for `ACAGACGAAGGAGCCGCAAACAAGTGATTAAGGGATGAATAATCCCTCAATATAAATATCTCTCACTTATTTAAA` high

Which class is correct for the following sequence? `ACAGACGAAGGAGCCGCAAAGAAGTTATTAAGGGAAGAATAATCTCTCAATATAAATATCTCTCACTTATTTAAA` mid

Textbook exercise: identify the category of the sequence given here, `ACAGACGAAGGAGCCGCAAATAAGTTATTAAGGGATGAATAATCCCACAATATAAATATCTCTCACTTATTTAAA` , according to its measured value. high

In plain terms, what class is `ACAGACGAAGGAGCCGCAAACAAGTTATTAAGTGATGAATAATCCCTCAATATAAATATCTCTCACTTATTTAAA` ? low

Which bin should I file `ACAGACGAAGGAGCCGCAAAGAAGTTATTAAGGCAAGAATAATCCCTCAATATAAATATCTCTCACTTATTTAAA` under? mid

Which of the defined bands does the recorded cleaved RNA product abundance of `ACAGACGAAGGAGCCGCAAAGAAGTTATTAAGGGATGAATAATACCTCAATTTAAATATCTCTCACTTATTTAAA` sit within? low
